Reference source: PubChem BioAssay (EPA / NIEHS)

read-out: TIMP metallopeptidase inhibitor 1 (TIMP1), TIMP1 (gene 7076); assay: BSK_hDFCGF_TIMP1: BioMAP Diversity Plus: hDFCGF Assay for TIMP metallopeptidase inhibitor 1 (TIMP1) Biomarker Activity (AID 2283062); conditions: primary human foreskin fibroblasts; actives raise or lower the signal
The source made the active and inactive calls. The calls were made as follows: active = hit-call score of the fitted dose curve at least 0.9, where 1 is the maximum; inactive = score below 0.9.
Write down one outcome, taken from true = active, false = inactive

Answer briefly: the call reported for `Cc1cccc(C)c1N` in this assay. false

What is the recorded call for this compound in the test? `ClC(Cl)=C(c1ccc(Cl)cc1)c1ccc(Cl)cc1` true

Given `ClC1=C(Cl)[C@]2(Cl)[C@@H]3[C@@H](Cl)[C@H]4O[C@H]4[C@@H]3C1(Cl)C2(Cl)Cl` , state the outcome it received in this test. false

Fill in: this test's call for `Cc1ccccc1O` is ___ false

# fetch the recorded call for `O=C(N[C@H]1CN2CCC1CC2)c1cc2ccoc2cn1` here false

----------
experiment: ATG_SREBP_CIS: Attagene CIS-FACTORIAL HepG2 Assay for human Sterol Regulatory Element Binding (SREBP) (AID 2282962); settings: HepG2 Attagene cis-factorial SREBP reporter, mRNA; actives raise or lower the signal
Calls of active or inactive are those of the source. How the source made its calls: active means hit-call score of the fitted dose curve at least 0.9, where 1 is the maximum; inactive means score below 0.9.
Valid outcomes are listed here; reply with one: active, inactive

> print(dat)
                                   molecule  class.assignment
1                            Clc1ccc(Cl)cc1          inactive
2    CCOC(=O)C(O)(c1ccc(Cl)cc1)c1ccc(Cl)cc1          inactive
3  ClC1=C(Cl)[C@]2(Cl)[C@@H]3[C@H]4C[C@H]([C@@H]5O[C@H]45)[C@@H]3[C@@]1(Cl)C2(Cl)Cl          inactive
4                            Cc1cc(O)ccc1Cl          inactive
5                                  Nn1cnnc1          inactive

Assay outcome for `CCSC(=O)N(CC)C1CCCCC1` : what was it? inactive

Can you look up the reported call for `Cc1cc2c3c(c1)C(c1ccccc1)=N[C@@H](NC(=O)c1ccncc1)C(=O)N3CC2` for me? active

Entry CC(C)C(=O)OCC(C)(C)C(OC(=O)C(C)C)C(C)C (configuration not stated) : call = ? inactive

For this molecule, state the assay outcome: `COc1ccc(O)c(C(C)(C)C)c1` inactive

Look up the recorded call for `Cc1cccc(C)c1N` in this test. inactive

Just curious, what result did `CC(C)(c1ccccc1)c1ccc(O)cc1` get here? inactive

Hello, I am checking results. What call was entered for `CN(C)c1nc(=O)n(C2CCCCC2)c(=O)n1C` ? inactive

For `Oc1ccc(C(c2ccc(O)cc2)(C(F)(F)F)C(F)(F)F)cc1` , which call appears in the assay record? inactive

What outcome does the record of this test show for `CCC(=O)O[C@H]1CC[C@H]2[C@@H]3CCC4=CC(=O)CC[C@]4(C)[C@H]3CC[C@]12C` ? active

Per the assay record, what outcome was assigned to `c1ccc(-c2ccccc2)cc1` ? inactive

What did the test return for `O=S(=O)(O)C(F)(F)C(F)(F)C(F)(F)C(F)(F)C(F)(F)C(F)(F)F` ? inactive

Returns: the outcome recorded for `C=CC(N)=O` in this assay. inactive
